The compounds listed here are annotated with their pKi.
Biological target: SGK1 (human)
pKi: −log10 of the molar value.

| entry.smiles | value.comparator | pKi |
| --- | --- | --- |
| CCOc1nc(C(=O)NCc2ccncc2)cc(N)c1C#N | < | 5.00 |
| Cc1nn(C)c(C)c1-c1cccc2c(CCCOc3cccc4ccccc34)c(C(=O)O)[nH]c12 | < | 5.00 |
| CC(C)(C)c1ccc2nc(-c3n[nH]c4ccccc34)[nH]c2c1 | = | 5.90 |
| Nc1ncc(-c2cnn(CCO)c2)c2scc(-c3ccc(NC(=O)Nc4cccc(F)c4)cc3)c12 | = | 5.60 |
| N[C@H](COc1cncc(-c2ccc3c(c2)/C(=C/c2ccco2)C(=O)N3)c1)Cc1c[nH]c2ccccc12 | = | 7.60 |
| O=C(NCCCCCCNC(=O)Nc1cccnc1)Nc1cccnc1 | < | 5.00 |
| Cc1nc(N)sc1-c1ccnc(Nc2ccc(N3CCOCC3)cc2)n1 | = | 6.60 |
| Nc1ncnc(Nc2cc(CNC(=O)C(F)(F)F)c(O)c(-c3ccc(Cl)cc3)c2)n1 | < | 5.00 |
| Cc1ccc(F)c(NC(=O)Nc2ccc(-c3nsc4ncnc(N)c34)cc2)c1 | < | 5.00 |
| COc1ccc(CNc2c(Nc3ccc4[nH]ncc4c3)c(=O)c2=O)cc1 | < | 5.00 |

All values here come from the kinase profiling compilation of Christmann-Franck et al. (2016).
